Taken from PubChem BioAssay (NCI).

System: UACC-257 melanoma
Experiment: NCI-60 one-dose screen, 48 h (100 = growth as untreated, 0 = no growth, -100 = all killed)
Details: 10 µM unless noted
This is part of a sample that, as a whole, favours compounds with a hit. Of some 83,000 tested, about 20% had one in any assay.
growth for assorted compounds
Give the number; % is assumed, so skip it.

Field: example entries. Status: answers known.
> print(dat)
                                   compound  attribute.measured  unit  value.measured
1  CCCCC[C@H]1C/C=C2/C(=O)C(Cl)=C[C@@H]2C/C=C\CCCC(=O)O[C@@H](CCCCC)C/C=C2/C(=O)C(Cl)=C[C@@H]2C/C=C\CCCC(=O)O1              growth     %           -63.5
2            O=C(/C=C/c1cccc(O)c1)c1ccccc1O              growth     %            86.8
3  CN1CCN(c2nc(-c3csc(-c4cccs4)n3)cc3ccccc23)CC1              growth     %            21.6
4    COC(=O)c1cc(=O)nc(N/N=C/c2ccc(C)cc2)s1              growth     %            97.5
5  O=C1C(Cl)=C(Nc2ccc(S(=O)(=O)c3ccc(NC4=C(Cl)C(=O)c5ccccc5C4=O)cc3)cc2)C(=O)c2ccccc21              growth     %           -81.3

Name the recorded growth for NCCNc1nc(-c2ccccc2)nc2nc(-c3ccccc3)oc12 .
111

// growth lookup, key: Cn1cc(-c2nc(-c3cn(C)c4ncccc34)cs2)c2ccccc21
60.6

I'd like to know its growth. The compound in question is CC(=O)Nc1cc(F)cc(C(F)(F)F)c1Cl
103

What does the data say about its growth? Entry: N#C/C(=C\c1ccc(-c2ccc(F)cc2)o1)c1nc(-c2ccco2)cs1
106

What value of growth has been recorded for this entry: CC1(C)NC2=C(C(Nc3cccnc3)N1)C(c1ccc([N+](=O)[O-])cc1)C(C(=O)c1ccc(N=[N+]=[N-])cc1)O2 (centres undefined)
104

growth lookup needed for CC(c1ccccc1)N1C(=O)C(C2SC(=S)N(C(C)c3ccccc3)C2=O)SC1=S (centres undefined) , thanks.
81.7

Which growth value belongs to CC1(C)CC[C@]2(C(=O)Nc3ccccn3)CC[C@]3(C)C(=CC[C@@H]4[C@@]5(C)C/C(=C/c6ccncc6)C(=O)C(C)(C)[C@@H]5CC[C@]43C)[C@@H]2C1 ?
48.4

Data request, read-out growth, for Cc1cc(Cl)nc(N(CCNc2ccnc3cc(Cl)ccc23)Cc2ccco2)n1
115

Fill blank: measured growth of the compound COc1cc(OC)c2c(c1)c1nc3cc(C)c(C)cc3nc1n2CCN(C)C is ____.
94.9

What value of growth has been reported for the following compound? CCCCC(=O)OC1CCCCC1C (centres undefined)
78.5

For N#Cc1c(-c2ccc(O)cc2)c2c(N)nn(-c3ccccc3)c2[nH]c1=O , what is its reported growth?
109

Give the measured growth of COc1ccc2c(c1)C(Br)=C(CCO)C2c1ccccc1 (centres undefined) .
77.6

Sample CC(C)(C)c1[nH]nc2c1C(c1cc3ccccc3[nH]c1=O)Nc1cc(C(=O)OCc3ccccc3)ccc1N2 (centres undefined) — what was its growth?
69.7

Bench note: what growth did Cc1csc(-c2ccc3c(c2)COC3(CCCN(C)C)c2ccc(F)cc2)c1 (centres undefined) show?
-57.7
